Where do these numbers come from? They come from patent US20260274955A1.

# System under test: Anti-CD28 Fab (SEQ ID NOs: 202, 203)
# Sequence (VH, as listed by the source, chain 1 of 2): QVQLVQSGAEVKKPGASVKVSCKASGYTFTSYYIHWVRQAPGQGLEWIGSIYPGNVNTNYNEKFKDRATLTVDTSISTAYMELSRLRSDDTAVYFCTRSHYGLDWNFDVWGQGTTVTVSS
# Sequence (VL, as listed by the source, chain 2 of 2): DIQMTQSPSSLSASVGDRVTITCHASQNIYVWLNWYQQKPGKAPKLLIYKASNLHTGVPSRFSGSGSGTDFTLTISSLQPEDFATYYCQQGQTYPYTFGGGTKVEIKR
# Protocol details: phage binding ELISA on captured Fab;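 note: clonal phage supernatants added briefly to wells pre-incubated with CD28 antigen or with blocking buffer only, then washed, bound phage read by ELISA using HRP-coupled anti-M13 antibody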
Let's look at some binders and their measured Anti-CD28 Fab signal.
Reported endpoint: Anti-CD28 Fab signal

>>> observed_measurement("YCDGHSPQYIEKCL [Phage-92]")
2.31
>>> observed_measurement("YCDGHAPQYMRKCL [Phage-101]")
2.3
>>> observed_measurement("YCDGHSWEYIGKCL [Phage-70]")
2.37
>>> observed_measurement("YCEGHTMEYMWKCL [Phage-90]")
2.31
